Biological target: Microphthalmia-associated transcription factor (Homo sapiens)
Sequence (O75030 whole entry): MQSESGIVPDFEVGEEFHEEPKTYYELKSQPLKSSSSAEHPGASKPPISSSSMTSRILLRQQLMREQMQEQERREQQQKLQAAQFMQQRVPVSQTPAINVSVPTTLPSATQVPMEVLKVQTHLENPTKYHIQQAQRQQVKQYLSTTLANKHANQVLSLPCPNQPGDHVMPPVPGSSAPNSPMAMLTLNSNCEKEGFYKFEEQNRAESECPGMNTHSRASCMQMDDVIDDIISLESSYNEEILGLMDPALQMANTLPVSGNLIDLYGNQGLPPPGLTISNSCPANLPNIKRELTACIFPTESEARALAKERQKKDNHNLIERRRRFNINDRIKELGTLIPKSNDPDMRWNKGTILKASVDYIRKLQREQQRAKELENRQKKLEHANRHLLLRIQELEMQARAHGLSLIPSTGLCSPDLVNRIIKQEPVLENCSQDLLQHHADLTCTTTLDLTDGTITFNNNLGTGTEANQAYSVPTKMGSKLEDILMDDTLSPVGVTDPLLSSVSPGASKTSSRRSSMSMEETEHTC
Assay: TRPM1 promoter luciferase signal decrease, dose response, MITF inhibitor project, cell-based, SK-MEL-5, cherry-picked, set 3 (AID 493073);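 also: SK-MEL-5 melanoma cells with luciferase driven by the MITF target TRPM1 promoter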
Format: functional
Activity calls are given as the source filed them.
Parameter measured: AC50

[
  {
    "Smiles entry": "Cc1ccc(-c2c[n+](Cc3ccc(Cl)c(Cl)c3)c3n2CCC3)cc1",
    "Parameter measured": "AC50",
    "Result": "3.74 µM (active)"
  },
  {
    "Smiles entry": "O=C(Nc1ccccc1)NN(C(=O)CCl)c1ccccc1",
    "Parameter measured": "AC50",
    "Result": "8.5 µM (active)"
  },
  {
    "Smiles entry": "NNC(=O)c1cc2ccccc2cc1O",
    "Parameter measured": "AC50",
    "Result": "24 µM (active)"
  }
]

Now look at this entry.
Short answer please: AC50, Microphthalmia-associated transcription factor (Homo sapiens), entry O=C(COC(=O)c1ccc(F)c([N+](=O)[O-])c1)NC(=O)NCc1ccccc1
13.6 µM (active)

* * *

Assay: THP-1 cell cytotoxicity, dose response, cytotoxicity control for Vif-APOBEC3G degradation inhibitor project, THP-1 cells (AID 1117359)
Assay type: functional
Settings: Human immunodeficiency virus 1, THP-1
Activity calls are given as the source filed them.
Parameter measured: CC50

A selection of reference data follows.
[
  {
    "Compound": "CCC(=O)N1N=C(c2ccc(NS(C)(=O)=O)cc2)CC1c1ccc(C)cc1 (stereo not drawn)",
    "CC50": "> 40 µM (active)"
  },
  {
    "Compound": "FC(F)(F)C1=Nc2cccc3cccc(c23)N1",
    "CC50": "11.5 µM (active)"
  }
]

Given Cc1ccc(S(=O)(=O)N(C)c2ccccc2C(=O)N2CCCC2)cc1 , state its recorded CC50.
> 40 µM (active)

* * *

Catalogue of EC50 readings, one per entry.
Target: Streptokinase A (Streptococcus pyogenes serotype M1)
Sequence (P10520 whole entry): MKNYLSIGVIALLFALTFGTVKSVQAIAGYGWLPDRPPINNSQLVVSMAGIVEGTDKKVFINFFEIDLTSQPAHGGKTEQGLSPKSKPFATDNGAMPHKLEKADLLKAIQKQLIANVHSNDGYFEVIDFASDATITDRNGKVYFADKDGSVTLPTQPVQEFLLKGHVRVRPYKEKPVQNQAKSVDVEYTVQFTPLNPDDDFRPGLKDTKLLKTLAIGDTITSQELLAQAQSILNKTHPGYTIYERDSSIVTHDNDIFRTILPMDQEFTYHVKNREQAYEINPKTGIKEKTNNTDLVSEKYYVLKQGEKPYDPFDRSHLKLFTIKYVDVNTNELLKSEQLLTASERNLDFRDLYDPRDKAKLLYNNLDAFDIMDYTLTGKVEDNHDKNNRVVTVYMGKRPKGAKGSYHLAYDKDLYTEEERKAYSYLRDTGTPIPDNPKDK
Assay: S. pyogenes streptokinase expression inhibitors, potency, dose response, plasminogen activation absorbance, OD405 (AID 1914);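 also: secreted streptokinase activity via plasminogen activation per viability signal from cell pellet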
Type: functional, Streptococcus pyogenes M1 GAS
The source made the active and inactive calls.

[
  {
    "Compound": "COc1ccc(-c2c[nH]nc2-c2ccc(OCc3ccccc3)cc2O)cc1",
    "System tested": "Streptokinase A (Streptococcus pyogenes serotype M1)",
    "Result": "> 150 µM (inconclusive)"
  }
]

Given COc1ccc2cc(C(=O)/C=C/c3cc(OC)c(O)c(OC)c3)ccc2c1 , state its recorded EC50.
> 150 µM (not active)

CCn1c(=S)sc2c(O)nc(SCC(=O)Nc3cc(OC)ccc3OC)nc21 , same question.
17.8 µM (inconclusive)

COc1ccc(OC)c(/C=N/n2c(S)nnc2-c2[nH]nc3c2CCC3)c1 , same question.
18.9 µM (inconclusive)

Cn1cc(C(=O)c2ccc(Cl)cc2Cl)cc1C(=O)NN=C(N)COc1ccc(Cl)cc1Cl , same question.
> 150 µM (not active)

COc1ccc(-c2csc3ncnc(N4CCN(c5ccccc5Cl)CC4)c23)cc1 , same question.
3.7 µM (active)

Cc1ccccc1NC(=O)NCCCCc1ccccc1 , same question.
> 150 µM (not active)
